- studyTarget: EPHB2 (UniProt P29323)
- Sequence (P29323 whole entry, looked up): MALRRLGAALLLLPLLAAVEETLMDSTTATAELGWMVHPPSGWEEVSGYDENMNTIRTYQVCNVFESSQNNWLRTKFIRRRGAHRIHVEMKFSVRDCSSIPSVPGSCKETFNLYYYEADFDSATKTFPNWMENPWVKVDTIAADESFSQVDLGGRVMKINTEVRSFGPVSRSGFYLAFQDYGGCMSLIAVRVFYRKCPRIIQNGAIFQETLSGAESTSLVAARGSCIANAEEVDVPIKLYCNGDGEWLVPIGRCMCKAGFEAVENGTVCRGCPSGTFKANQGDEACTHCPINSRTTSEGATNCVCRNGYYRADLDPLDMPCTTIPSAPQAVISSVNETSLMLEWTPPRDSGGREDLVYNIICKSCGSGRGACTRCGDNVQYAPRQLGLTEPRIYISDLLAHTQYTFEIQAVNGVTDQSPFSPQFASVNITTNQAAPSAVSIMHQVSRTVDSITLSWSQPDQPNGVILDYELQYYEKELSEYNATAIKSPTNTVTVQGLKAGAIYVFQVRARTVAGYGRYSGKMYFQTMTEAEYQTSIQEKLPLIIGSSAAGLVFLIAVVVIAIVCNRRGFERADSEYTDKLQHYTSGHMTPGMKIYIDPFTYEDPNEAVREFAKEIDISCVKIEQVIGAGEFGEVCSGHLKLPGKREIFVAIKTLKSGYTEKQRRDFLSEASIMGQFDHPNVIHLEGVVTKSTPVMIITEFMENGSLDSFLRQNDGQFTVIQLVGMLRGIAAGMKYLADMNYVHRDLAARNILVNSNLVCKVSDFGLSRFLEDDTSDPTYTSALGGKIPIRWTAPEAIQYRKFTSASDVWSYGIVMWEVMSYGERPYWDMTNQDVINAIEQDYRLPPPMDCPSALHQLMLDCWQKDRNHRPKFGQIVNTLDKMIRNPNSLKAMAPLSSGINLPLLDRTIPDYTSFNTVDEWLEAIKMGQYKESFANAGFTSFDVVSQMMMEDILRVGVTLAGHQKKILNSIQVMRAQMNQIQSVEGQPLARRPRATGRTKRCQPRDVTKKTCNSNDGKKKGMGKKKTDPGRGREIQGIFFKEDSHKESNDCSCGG
- testName: phosphorylation enrichment, bacterial display (enrichment ratio); higher = better substrate or ligand; peptides without Tyr show the background;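 further: 11-residue human phosphosite peptides and single-mutation variants displayed on the E. coli surface, counted by deep sequencing, each peptide's frequency after selection divided by its frequency in the unselected input library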;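 further: frequency after pTyr selection over input frequency; kinase dosed for 20-30% of maximal phosphorylation in three min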
Lab note: anything with phosphorylation enrichment at or over 0.6 counts as met; the rest go in not met.

In [3]: df
Out[3]:
                     biopolymersequence  classname
0        KHGGNYVPAPE [OSCP1_Y237_K242E]    not met
1                MYVKSYTIHYS [F5_Y2153]        met
2    GFSRHCEDGFP [CTNND1_Y217_Y217C_YF]    not met
3             PASWTYVRWFD [PTDSS1_Y274]        met
4  PSRKDYETFQS [CTNND2_Y1154_P1159S_YF]        met
5          RRGTRYMSSRP [RPL21_Y13_F15S]    not met
